test description: Test A: cytotoxicity in mock-infected MT-4 cells (MTT)
Assay type: cell-based
details: human

compound: Cc1cc(C)c(Nc2nc(Nc3ccc(C#N)cc3)nnc2Cl)c(C)c1
CC50: > 25.1 µM

====

System: HIV
test description: Test B: HIV infection measured fluorometrically in MT-4 cells engineered with GFP (HIV-specific promotor)
Type: cell-based
details: Human immunodeficiency virus 1, MT4
pIC50: −log10 of the molar value.
// values below are reported pIC50
experimental readout: pIC50

compound: N#CCCc1cc(Cl)c(Nc2nnc(Cl)c(Nc3ccc(C#N)cc3)n2)c(Br)c1
experimental readout: pIC50
quantitative result: 8.50
--
compound: Cc1cc(/C=C/C(N)=O)cc(C)c1Nc1nc(Nc2ccc(C#N)cc2)nnc1C
experimental readout: pIC50
quantitative result: 6.60
--
compound: N#CCCc1cc(Cl)c(Nc2nnc(Cl)c(Nc3ccc(C#N)cc3)n2)c(Cl)c1
experimental readout: pIC50
quantitative result: 8.30
--
compound: Cc1cc(/C=C/C(N)=O)cc(C)c1Oc1nc(Nc2ccc(C#N)cc2)nnc1C
experimental readout: pIC50
quantitative result: 9.20
--
compound: N#C/C=C/c1cc(F)c(Nc2nnc(Cl)c(Nc3ccc(C#N)cc3)n2)c(F)c1
experimental readout: pIC50
quantitative result: 8.50

====

Tested on: mock-infected MT-4 cells
test description: Test B: cytotoxicity in mock-infected MT-4 cells engineered with GFP under a constitutional promoter
Assay type: cell-based

compound: Cc1cc(/C=C/C#N)cc(C)c1Nc1nc(Nc2ccc(C#N)cc2)nnc1Cl
target of assay: mock-infected MT-4 cells
PCC50: 4.9
//
compound: COc1cc(C=C(C)C#N)cc(C)c1Nc1nc(Nc2ccc(C#N)cc2)nnc1C
target of assay: mock-infected MT-4 cells
PCC50: 5.1
//
compound: CCNC(=O)c1cc(C)c(Nc2cnnc(Nc3ccc(C#N)cc3)n2)c(C)c1
target of assay: mock-infected MT-4 cells
PCC50: 5.1
//
compound: Cc1cc(C=CC#N)cc(C)c1Nc1nnc(Cl)c(Nc2ccc(C#N)cc2)n1
target of assay: mock-infected MT-4 cells
PCC50: 4.9
//
compound: COc1cc(/C(C)=C/C#N)cc(OC)c1Nc1nc(Nc2ccc(C#N)cc2)nnc1C
target of assay: mock-infected MT-4 cells
PCC50: 4.9
